Each record here notes measured IC50.
test system: Ad2 pre-mRNA splicing in HeLa nuclear extract; assay: In vitro splicing (biochemical) assay; settings: in vitro splicing of Ad2 pre-mRNA, 30° C., 90 min, read-out: Biochem IC50
Reply with just the number (in nM).

Solved cases (3 shown):
>  <compound>
CC[C@H](O)[C@@H](C)[C@H]1O[C@@H]1C[C@H](C)/C=C/C=C(\C)[C@H]1OC(=O)C[C@H](O)CC[C@@](C)(O)[C@@H](OC(=O)N2CCC[N+](C)(C(C)C)CC2)/C=C/[C@@H]1C.[I-] (some centres unmarked)

>  <systemUnderTest>
Ad2 pre-mRNA splicing in HeLa nuclear extract

>  <valueUnits>
nM

>  <value>
60

$$$$
>  <compound>
CC[C@H](O)[C@@H](C)[C@H]1O[C@@H]1C[C@H](C)/C=C/C=C(\C)[C@H]1OC(=O)C[C@H](O)CC[C@@](C)(O)[C@@H](OC(=O)N2CC[N+](C)(C(C)C)CC2)/C=C/[C@@H]1C.[I-]

>  <systemUnderTest>
Ad2 pre-mRNA splicing in HeLa nuclear extract

>  <valueUnits>
nM

>  <value>
60

$$$$
>  <compound>
CC[C@H](O)[C@@H](C)[C@H]1O[C@@H]1C[C@H](C)/C=C/C=C(\C)[C@H]1OC(=O)C[C@H](O)CC[C@@](C)(O)[C@@H](OC(=O)N2CC[N+](C)(C)CC2)/C=C/[C@@H]1C.[I-]

>  <systemUnderTest>
Ad2 pre-mRNA splicing in HeLa nuclear extract

>  <valueUnits>
nM

>  <value>
50

$$$$

Exercise: Hello, I am looking for reported IC50 with Ad2 pre-mRNA splicing in HeLa nuclear extract for CC[C@H](O)[C@@H](C)[C@H]1O[C@@H]1C[C@H](C)/C=C/C=C(\C)[C@H]1OC(=O)C[C@H](O)CC[C@@](C)(O)[C@@H](OC(=O)N2CC[N+](C)(C3CCCCCC3)CC2)/C=C/[C@@H]1C.[I-] . Could you help?
Key: 10
